The values you see were collected from the RNAGym collection of RNA variant scans (doi:10.7554/elife.80360).

B1: Twister Ribozyme (parent)
chain: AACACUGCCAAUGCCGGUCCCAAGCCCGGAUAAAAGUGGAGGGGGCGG

variants of: B1; assay: self-cleavage, relative activity (ratio to wild type); higher = more cleavage; co-transcriptional
Hi there, I'd appreciate the recorded self-cleavage for every entry that follows.
Reply with the value as a number alone.

What value of self-cleavage has been reported for the following variant? A35U G42U
0.374

What value of self-cleavage has been reported for the following variant? G36C G45A
0.37

What value of self-cleavage has been reported for the following variant? C9A A10G
0.648

What value of self-cleavage has been reported for the following variant? G36A A40C
0.115

What value of self-cleavage has been reported for the following variant? C19A G41A
0.0916

What value of self-cleavage has been reported for the following variant? U6C G48A
0.514

What value of self-cleavage has been reported for the following variant? C20G G36C
0.168

What value of self-cleavage has been reported for the following variant? G13U G38U
0.303

What value of self-cleavage has been reported for the following variant? A22U A40U
0.128

What value of self-cleavage has been reported for the following variant? A10G G13A
1.09

What value of self-cleavage has been reported for the following variant? U6G C20U
0.236

What value of self-cleavage has been reported for the following variant? C20G G44U
0.0685

What value of self-cleavage has been reported for the following variant? C26G G29U
0.0569

What value of self-cleavage has been reported for the following variant? C27G G45U
0.0905

What value of self-cleavage has been reported for the following variant? U31G G47U
0.92

What value of self-cleavage has been reported for the following variant? C27G A34G
0.124

What value of self-cleavage has been reported for the following variant? A40C C46A
0.202

What value of self-cleavage has been reported for the following variant? C26G A40C
0.113

What value of self-cleavage has been reported for the following variant? A23U G48C
0.48

What value of self-cleavage has been reported for the following variant? U37G A40C
0.163

What value of self-cleavage has been reported for the following variant? C19A G36C
0.0909

What value of self-cleavage has been reported for the following variant? C3U A34G
0.153

What value of self-cleavage has been reported for the following variant? C8G A32G
0.275

What value of self-cleavage has been reported for the following variant? G24U G48U
0.0921

What value of self-cleavage has been reported for the following variant? C14U G48A
1.1

What value of self-cleavage has been reported for the following variant? C3A C26G
0.0639

What value of self-cleavage has been reported for the following variant? G13U A30C
0.665

What value of self-cleavage has been reported for the following variant? A22G A35G
0.138

What value of self-cleavage has been reported for the following variant? A11C A22G
0.168

What value of self-cleavage has been reported for the following variant? C21U C25A
0.061

What value of self-cleavage has been reported for the following variant? A22C A33U
0.983

What value of self-cleavage has been reported for the following variant? A33G G36U
0.256

What value of self-cleavage has been reported for the following variant? C5U A35C
0.82

What value of self-cleavage has been reported for the following variant? G16C A34C
0.0817

What value of self-cleavage has been reported for the following variant? G29U G44C
0.858

What value of self-cleavage has been reported for the following variant? A1U C27U
0.0591

What value of self-cleavage has been reported for the following variant? G39U C46U
0.23

What value of self-cleavage has been reported for the following variant? C9A G17C
0.0631

What value of self-cleavage has been reported for the following variant? A4C C8U
0.108
